Reference source: PubChem BioAssay AID1918938

IC50: recorded values
Tested on: 556581-035-R-J1-PDC complex spheroid viability
measurement protocol: Anticancer human tumor 556581-035-R-J1-PDC patient-derived ovarian carcinoma cell line growth inhibition
assay setup: curve of first compound; second compound 1 µM
Numbers only; they are read as µM.

{"compound": "Nc1ncn(C2CC(O)C(CO)S2)c(=O)n1 (configuration not stated) + NC1CCC(NC2CC2c2ccccc2)CC1", "target of assay": "556581-035-R-J1-PDC complex spheroid viability", "measure name": "IC50", "assay result": 0.0912}

# input Consider the compound O=C(C=Cc1cccc(S(=O)(=O)Nc2ccccc2)c1)NO + NC1CC1c1ccc(-c2cccc(O)c2)cc1 and give its measured IC50.
# output 0.0692

# input # query: IC50 of entry Nc1ncn(C2CC(O)C(CO)S2)c(=O)n1 (configuration not stated) + NC1CC1c1ccc(-c2cccc(O)c2)cc1
# output 0.0347

# input Using the record for CC1COCCN1c1cc(-c2ccnn2C)c2ccnc(-c3ccn[nH]3)c2n1 (configuration not stated) + NC1CCC(NC2CC2c2ccccc2)CC1 , report its IC50.
# output 0.025

###

Test system: 556581-035-R-J1-PDC complex spheroid viability
measurement protocol: Anticancer human tumor 556581-035-R-J1-PDC cell line growth inhibition;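 also: spheroids exposed to agents for seven days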
assay setup: curve of first compound; second compound 3.16 µM
Source text: Multicellular complex tumor spheroid response to LSD1 Inhibitor Iadademstat in combination with a variety of drugs and investigational agents in selected tumor cell lines The current study was undertaken to assess response to LSD1 inhibitors in combination with standard-of-care drugs and investigational agents in solid tumor complex spheroid models as well as in the K-562 leukemia. […] Compounds. […] If the clinical Cmax for an agent had not been determined, the highest concentration tested was 10 microM. […]
Measured pIC50, listed per entry for reference.
Give only the number. pIC50 is defined as minus log10 of concentration in molar units.

Example molecules with recorded pIC50:
{"molecule": "Nc1ccccc1NC(=O)c1ccc(CNC(=O)OCc2cccnc2)cc1 + NC1CC1c1ccc(-c2cccc(O)c2)cc1", "assay result": 7.01}
{"molecule": "CC[C@@]1(O)C(=O)OCc2c1cc1n(c2=O)Cc2cc3c(CN(C)C)c(O)ccc3nc2-1 + NC1CCC(NC2CC2c2ccccc2)CC1", "assay result": 7.73}
{"molecule": "O=C(C=Cc1cccc(S(=O)(=O)Nc2ccccc2)c1)NO + NC1CC1c1ccc(-c2cccc(O)c2)cc1", "assay result": 7.18}
{"molecule": "O=C(C=Cn1cnc(-c2cc(C(F)(F)F)cc(C(F)(F)F)c2)n1)NNc1cnccn1 + NC1CCC(NC2CC2c2ccccc2)CC1", "assay result": 6.60}
{"molecule": "CCN(c1cc(-c2ccc(CN3CCOCC3)cc2)cc(C(=O)NCc2c(C)cc(C)[nH]c2=O)c1C)C1CCOCC1 + NC1CC1c1ccc(-c2cccc(O)c2)cc1", "assay result": 6.33}
{"molecule": "O=C(C=Cc1cccc(S(=O)(=O)Nc2ccccc2)c1)NO + NC1CCC(NC2CC2c2ccccc2)CC1", "assay result": 7.03}
{"molecule": "CC(C)CC(NC(=O)CNC(=O)c1cc(Cl)ccc1Cl)B1OC(=O)CC(CC(=O)O)(C(=O)O)O1 (stereo not drawn) + NC1CC1c1ccc(-c2cccc(O)c2)cc1", "assay result": 8.57}
{"molecule": "COc1ccc([C@@H](O)c2cc(-c3ncnc4cc(N5CCOCC5)ccc34)c(F)cc2Cl)nn1 + NC1CCC(NC2CC2c2ccccc2)CC1", "assay result": 6.07}

# input Value lookup for pIC50; key = NS(=O)(=O)OCC1CC(n2ccc3c(NC4CCc5ccccc54)ncnc32)CC1O (stereo not drawn) + NC1CC1c1ccc(-c2cccc(O)c2)cc1
# output 6.59

# input Report pIC50 for NS(=O)(=O)OCC1CC(n2ccc3c(NC4CCc5ccccc54)ncnc32)CC1O (stereo not drawn) + NC1CCC(NC2CC2c2ccccc2)CC1 please.
# output 5.82

# input Report pIC50 for CC1(C)CCC(CN2CCN(c3ccc(C(=O)NS(=O)(=O)c4ccc(NCC5CCOCC5)c([N+](=O)[O-])c4)c(Oc4cnc5[nH]ccc5c4)c3)CC2)=C(c2ccc(Cl)cc2)C1 + NC1CC1c1ccc(-c2cccc(O)c2)cc1 please.
# output 5.42

# input Value lookup for pIC50; key = COc1cc(Nc2ncc3c(n2)-c2ccc(Cl)cc2C(c2c(F)cccc2OC)=NC3)ccc1C(=O)O + NC1CC1c1ccc(-c2cccc(O)c2)cc1
# output 6.36

# input Any idea what pIC50 was measured for Nc1ncn(C2CC(O)C(CO)S2)c(=O)n1 (stereo not drawn) + NC1CCC(NC2CC2c2ccccc2)CC1 ?
# output 7.07

# input Data request, read-out pIC50, for Nc1ccn(C2OC(CO)C(O)C2(F)F)c(=O)n1 (stereo not drawn) + NC1CCC(NC2CC2c2ccccc2)CC1
# output 8.62

# input Entry under review: Nc1ncn(C2CC(O)C(CO)S2)c(=O)n1 (stereo not drawn) + NC1CC1c1ccc(-c2cccc(O)c2)cc1 . Reported pIC50?
# output 7.47

# input Query: pIC50; subject: CC(C)c1c(-c2ccccc2)nc2c(C#N)c[nH]n2c1=O + NC1CCC(NC2CC2c2ccccc2)CC1
# output 5.08

# input Quick check: pIC50 of COc1cc(C2c3cc4c(cc3C(OC3OC5COC(C)OC5C(O)C3O)C3COC(=O)C23)OCO4)cc(OC)c1O (stereo not drawn) + NC1CC1c1ccc(-c2cccc(O)c2)cc1 ?
# output 6.50

# input Requested read-out: pIC50. Entry: CC1(C)CCC(CN2CCN(c3ccc(C(=O)NS(=O)(=O)c4ccc(NCC5CCOCC5)c([N+](=O)[O-])c4)c(Oc4cnc5[nH]ccc5c4)c3)CC2)=C(c2ccc(Cl)cc2)C1 + NC1CCC(NC2CC2c2ccccc2)CC1
# output 5.42

###

Tested on: 556581-035-R-J1-PDC complex spheroid viability
measurement protocol: Anticancer human tumor 556581-035-R-J1-PDC cell line growth inhibition;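 also: spheroids exposed to agents for seven days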;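 as to viability, T/C: 100% = DMSO vehicle control wells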
assay setup: second compound 3.16 µM; first compound 0.1 µM; stronger effect = lower value
Readings of viability, T/C for the listed molecules
Number in %, nothing else.

For orientation, consider the following solved cases.
{"molecule": "CC(C)c1c(-c2ccccc2)nc2c(C#N)c[nH]n2c1=O + NC1CCC(NC2CC2c2ccccc2)CC1", "target of assay": "556581-035-R-J1-PDC complex spheroid viability", "assay result": 76.4}
{"molecule": "CC1COCCN1c1cc(C2(S(C)(=N)=O)CC2)nc(-c2ccnc3[nH]ccc23)n1 (configuration not stated) + NC1CC1c1ccc(-c2cccc(O)c2)cc1", "target of assay": "556581-035-R-J1-PDC complex spheroid viability", "assay result": 96}
{"molecule": "CC1COCCN1c1cc(-c2ccnn2C)c2ccnc(-c3ccn[nH]3)c2n1 (configuration not stated) + NC1CCC(NC2CC2c2ccccc2)CC1", "target of assay": "556581-035-R-J1-PDC complex spheroid viability", "assay result": 39.8}
{"molecule": "COc1ccc([C@@H](O)c2cc(-c3ncnc4cc(N5CCOCC5)ccc34)c(F)cc2Cl)nn1 + NC1CC1c1ccc(-c2cccc(O)c2)cc1", "target of assay": "556581-035-R-J1-PDC complex spheroid viability", "assay result": 84.2}
{"molecule": "CC1COCCN1c1cc(C2(S(C)(=N)=O)CC2)nc(-c2ccnc3[nH]ccc23)n1 (configuration not stated) + NC1CCC(NC2CC2c2ccccc2)CC1", "target of assay": "556581-035-R-J1-PDC complex spheroid viability", "assay result": 77.8}
{"molecule": "Cn1ncnc1C1c2n[nH]c(=O)c3cc(F)cc(c23)NC1c1ccc(F)cc1 (configuration not stated) + NC1CC1c1ccc(-c2cccc(O)c2)cc1", "target of assay": "556581-035-R-J1-PDC complex spheroid viability", "assay result": 91.6}

Attention now turns to another entry.
# input Fill in the blank: the reported viability, T/C of COc1ccc([C@@H](O)c2cc(-c3ncnc4cc(N5CCOCC5)ccc34)c(F)cc2Cl)nn1 + NC1CCC(NC2CC2c2ccccc2)CC1 is ____.
# output 78.6

###

Test system: 556581-035-R-J1-PDC complex spheroid viability
measurement protocol: Anticancer human tumor 556581-035-R-J1-PDC cell line growth inhibition; active means viability on the fitted dose curve at most 10% of control; inactive means the rest;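 also: spheroids exposed to agents for seven days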
assay setup: second compound 3.16 µM; first compound 0.0949 µM
Use one of these outcomes when replying: active, inactive

Example entries begin here.
{"compound": "NS(=O)(=O)OCC1CC(n2ccc3c(NC4CCc5ccccc54)ncnc32)CC1O (stereo unspecified) + NC1CC1c1ccc(-c2cccc(O)c2)cc1", "class label": "inactive"}
{"compound": "Nc1ccccc1NC(=O)c1ccc(CNC(=O)OCc2cccnc2)cc1 + NC1CC1c1ccc(-c2cccc(O)c2)cc1", "class label": "inactive"}
{"compound": "CCc1c2c(nc3ccc(O)cc13)-c1cc3c(c(=O)n1C2)COC(=O)[C@]3(O)CC + NC1CCC(NC2CC2c2ccccc2)CC1", "class label": "active"}

# input Kindly provide the recorded test outcome for the following compound: CCc1c2c(nc3ccc(O)cc13)-c1cc3c(c(=O)n1C2)COC(=O)[C@]3(O)CC + NC1CC1c1ccc(-c2cccc(O)c2)cc1
# output active

# input State the result this test recorded for Nc1ccn(C2OC(CO)C(O)C2(F)F)c(=O)n1 (stereo unspecified) + NC1CCC(NC2CC2c2ccccc2)CC1 .
# output inactive

# input Each compound tested received a call. Report the one for O=C(C=Cc1cccc(S(=O)(=O)Nc2ccccc2)c1)NO + NC1CC1c1ccc(-c2cccc(O)c2)cc1 .
# output inactive

# input Field: outcome | Entry: COc1cc(C2c3cc4c(cc3C(OC3OC5COC(C)OC5C(O)C3O)C3COC(=O)C23)OCO4)cc(OC)c1O (stereo unspecified) + NC1CC1c1ccc(-c2cccc(O)c2)cc1
# output inactive

# input Could you please tell me the result logged for Nc1ccn(C2OC(CO)C(O)C2(F)F)c(=O)n1 (stereo unspecified) + NC1CC1c1ccc(-c2cccc(O)c2)cc1 in this assay?
# output inactive

# input Could you please tell me the result logged for CCN(c1cc(-c2ccc(CN3CCOCC3)cc2)cc(C(=O)NCc2c(C)cc(C)[nH]c2=O)c1C)C1CCOCC1 + NC1CCC(NC2CC2c2ccccc2)CC1 in this assay?
# output inactive

# input Which outcome was assigned to Nc1ncn(C2CC(O)C(CO)S2)c(=O)n1 (stereo unspecified) + NC1CCC(NC2CC2c2ccccc2)CC1 in this test?
# output inactive
